Assay: in vivo
Conditions: Wistar Han, rat, lung
Listed below: MRT values for each entry.

{"COMPOUND": "CC(=O)N[C@H]1CSCCC(=O)N2CN3CN(C2)C(=O)CCSC[C@H](NC(=O)[C@H](CC(=O)O)NC(=O)[C@H](CCC(N)=O)NC(=O)[C@H](CC(C)(C)C)NC(=O)[C@H](Cc2cn(C)c4ccccc24)NC(=O)[C@H](CCC(N)=O)NC1=O)C(=O)N[C@@H](Cc1cn(C)c2ccccc12)C(=O)N[C@@H](CCCNC(=N)N(C)C)C(=O)NCC(=O)N[C@@H](Cc1ccc(F)c(Cl)c1)C(=O)N[C@H](C(N)=O)CSCCC3=O", "METRIC": "MRT", "REPORTED_RESULT": "1.8 h"}
{"COMPOUND": "CC(=O)N[C@H]1CSCCC(=O)N2CN3CN(C2)C(=O)CCSC[C@H](NC(=O)[C@H](CC(N)=O)NC(=O)[C@H](CCC(=O)O)NC(=O)[C@H](CC(C)C)NC(=O)[C@H](Cc2c[nH]c4ccccc24)NC(=O)[C@H](Cc2c[nH]cn2)NC1=O)C(=O)N[C@@H](Cc1c[nH]c2ccccc12)C(=O)N[C@@H](CCCNC(=N)N)C(=O)NCC(=O)N[C@@H](Cc1ccccc1)C(=O)N[C@H](C(N)=O)CSCCC3=O", "METRIC": "MRT", "REPORTED_RESULT": "> 24 h"}
{"COMPOUND": "CC(=O)N[C@H]1CSCCC(=O)N2CN3CN(C2)C(=O)CCSC[C@H](NC(=O)[C@H](CC(=O)O)NC(=O)[C@H](CCC(=O)O)NC(=O)[C@H](CC(C)(C)C)NC(=O)C(Cc2cn(C)c4ccccc24)NC(=O)[C@H](CCC(N)=O)NC1=O)C(=O)N[C@@H](Cc1cn(C)c2ccccc12)C(=O)N[C@@H](CCCNC(=N)N(C)C)C(=O)NCC(=O)N[C@@H](Cc1ccc(F)cc1)C(=O)N[C@H](C(N)=O)CSCCC3=O (stereo not given in full)", "METRIC": "MRT", "REPORTED_RESULT": "1.3 h"}
{"COMPOUND": "CC(=O)N[C@H]1CSCCC(=O)N2CN3CN(C2)C(=O)CCSC[C@H](NC(=O)[C@@H](CC(=O)O)NC(=O)[C@H](CCC(=O)O)NC(=O)[C@H](CC(C)C)NC(=O)[C@H](Cc2c[nH]c4ccccc24)NC(=O)[C@@H](CCC(N)=O)NC1=O)C(=O)N[C@@H](Cc1c[nH]c2ccccc12)C(=O)N[C@@H](CCCNC(=N)N)C(=O)NCC(=O)N[C@@H](Cc1ccc(F)cc1)C(=O)N[C@H](C(=O)O)CSCCC3=O", "METRIC": "MRT", "REPORTED_RESULT": "1 h"}

Reported MRT, compound CC(=O)N[C@H]1CSCCC(=O)N2CN3CN(C2)C(=O)CCSC[C@H](NC(=O)[C@H](CC(=O)O)NC(=O)[C@H](CCC(=O)O)NC(=O)[C@H](CC(C)C)NC(=O)[C@H](Cc2cccc4ccccc24)NC(=O)[C@H](CCC(N)=O)NC1=O)C(=O)N[C@@H](Cc1c[nH]c2ccccc12)C(=O)N[C@@H](CCCNC(=N)N(C)C)C(=O)NCC(=O)N[C@@H](Cc1ccc(F)cc1)C(=O)N[C@H](C(=O)N[C@@H](C)C(N)=O)CSCCC3=O : ____
2.2 h
